Data provenance: patent US20260008768A1

- assayed_system: human NLRP3 (Homo sapiens)
- Sequence (Q96P20 whole entry): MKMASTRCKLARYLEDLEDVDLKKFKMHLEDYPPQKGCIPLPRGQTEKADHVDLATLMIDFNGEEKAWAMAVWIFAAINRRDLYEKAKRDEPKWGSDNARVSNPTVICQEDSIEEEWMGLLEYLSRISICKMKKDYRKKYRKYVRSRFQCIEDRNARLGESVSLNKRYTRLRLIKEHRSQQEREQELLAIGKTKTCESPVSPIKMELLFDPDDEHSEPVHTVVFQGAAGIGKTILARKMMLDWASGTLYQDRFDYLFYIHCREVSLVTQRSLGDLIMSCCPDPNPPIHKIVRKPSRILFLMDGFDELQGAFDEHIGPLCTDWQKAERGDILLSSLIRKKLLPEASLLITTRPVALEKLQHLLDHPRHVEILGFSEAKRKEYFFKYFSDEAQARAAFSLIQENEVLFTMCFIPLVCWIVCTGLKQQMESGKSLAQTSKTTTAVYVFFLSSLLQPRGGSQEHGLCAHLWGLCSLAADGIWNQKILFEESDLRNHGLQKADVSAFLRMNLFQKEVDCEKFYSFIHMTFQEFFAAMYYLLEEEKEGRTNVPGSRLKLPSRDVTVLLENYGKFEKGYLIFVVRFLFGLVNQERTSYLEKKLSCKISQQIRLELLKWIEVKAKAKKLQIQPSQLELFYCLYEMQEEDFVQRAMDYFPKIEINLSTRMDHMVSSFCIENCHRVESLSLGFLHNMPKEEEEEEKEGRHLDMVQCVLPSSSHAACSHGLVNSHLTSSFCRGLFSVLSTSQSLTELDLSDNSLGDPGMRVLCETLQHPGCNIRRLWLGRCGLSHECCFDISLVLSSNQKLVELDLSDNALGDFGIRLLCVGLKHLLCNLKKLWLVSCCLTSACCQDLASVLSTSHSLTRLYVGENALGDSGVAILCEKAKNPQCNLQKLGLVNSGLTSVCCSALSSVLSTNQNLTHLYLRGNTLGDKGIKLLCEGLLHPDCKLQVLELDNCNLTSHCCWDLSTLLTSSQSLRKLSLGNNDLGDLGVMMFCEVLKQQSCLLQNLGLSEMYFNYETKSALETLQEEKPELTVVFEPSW
- test_summary: Human Whole Blood (hWB) NLRP3 Assay (LPS/ATP, IL-1β)
- Format: cell-based
- Set-up: host or cells: human whole blood from healthy volunteers (A3)
- details: Table B, activity class
Record form. Attribute: IC50. Fill in for each entry.

Example entries and their recorded answers appear below.
compound | assayed_system | observable | measured
C[C@@H]1CCN(c2nnn[nH]2)C[C@H](NC(=O)N(C)c2ccc(Cl)cc2)C1 (single isomer, unassigned) | human NLRP3 (Homo sapiens) | IC50 | < 1 µM
C[C@@H]1CCN(c2nnn[nH]2)C[C@H](NC(=O)N(C)c2ccc(C(F)F)cc2F)C1 (single isomer, unassigned) [18A*] | human NLRP3 (Homo sapiens) | IC50 | < 1 µM
C[C@@H]1C[C@@H](NC(=O)N(C)c2ccc(OC(F)(F)F)c(F)c2F)[C@H]2CC[C@@H]1N2c1nnn[nH]1 (single isomer, unassigned) [59A*] | human NLRP3 (Homo sapiens) | IC50 | 2 to 3 µM
C[C@@H]1C[C@@H](NC(=O)N(C)c2ccc(OC(F)F)cc2F)[C@H]2CC[C@@H]1N2c1nnn[nH]1 (single isomer, unassigned) [57A*] | human NLRP3 (Homo sapiens) | IC50 | < 1 µM
C[C@H]1CCN(c2nnn[nH]2)C[C@@H](NC(=O)N(C)c2ccc(OC(F)F)c(F)c2F)C1 (single isomer, unassigned) [40D*] | human NLRP3 (Homo sapiens) | IC50 | > 3 µM

Quick batch: IC50 for everything below.
1. C[C@@H]1C[C@@H](NC(=O)N(C)c2ccc(OC(F)F)c(OC(F)F)c2)[C@H]2CC[C@@H]1N2c1nnn[nH]1 (single isomer, unassigned) [64A*]
2. C[C@@H]1CCN(c2nnn[nH]2)C[C@H](NC(=O)N(C)c2ccc(OC(F)F)c(OC(F)F)c2)C1 (single isomer, unassigned) [16A*]
3. C[C@@H]1CCN(c2nnn[nH]2)C[C@H](NC(=O)N(C)c2ccc(OC(F)(F)F)c(F)c2)C1 (single isomer, unassigned) [14A*]
4. C[C@@H]1C[C@@H](NC(=O)N(C)c2ccc(C(F)F)cc2F)[C@H]2CC[C@@H]1N2c1nnn[nH]1 (single isomer, unassigned) [55A*]
5. C[C@@H]1CCN(c2nnn[nH]2)C[C@H](NC(=O)N(C)c2ccc(C(F)F)c(F)c2)C1 (single isomer, unassigned) [22A*]
6. C[C@@H]1CCN(c2nnn[nH]2)C[C@H](NC(=O)N(C)c2ccc(OC(F)F)cc2)C1 (single isomer, unassigned) [11A*]
7. C[C@@H]1C[C@@H](NC(=O)N(C)c2ccc(C3CC3)cc2)[C@H]2CC[C@@H]1N2c1nnn[nH]1 (single isomer, unassigned) [46A*]

Outgoing:
< 1 µM
1 to 2 µM
1 to 2 µM
< 1 µM
1 to 2 µM
< 1 µM
< 1 µM

Quick note, IC50 for C[C@@H]1CCN(c2nnn[nH]2)C[C@H](NC(=O)N(C)c2ccc(C3CC3)c(F)c2)C1 (single isomer, unassigned) [23A*] landed at < 1 µM

###

- assayed_system: human NLRP3 (Homo sapiens)
- test_summary: Scintillation Proximity (SPA) NLRP3 Assay, displacement of 3H-MCC950
- Type: binding
- details: Table B, activity class; displacement of 3H-MCC950 from human NLRP3
pIC50: −log10 of the molar value.
observable: pIC50

Here are 8 compounds together with their reported answers.
compound | assayed_system | measured
C[C@H]1CCN(c2nnn[nH]2)C[C@@H](NC(=O)N(C)c2ccc(C3CC3)cc2)C1 (single isomer, unassigned) | human NLRP3 (Homo sapiens) | 5.00 to 6.00
C[C@@H]1C[C@@H](NC(=O)N(C)c2ccc(OC(F)F)c(F)c2)[C@H]2CC[C@@H]1N2c1nnn[nH]1 (single isomer, unassigned) [52A*] | human NLRP3 (Homo sapiens) | > 6.00
C[C@@H]1CCN(c2nnn[nH]2)C[C@@H](NC(=O)N(C)c2ccc(OC(F)F)cc2)C1 (single isomer, unassigned) [11B*] | human NLRP3 (Homo sapiens) | 5.00 to 6.00
C[C@H]1C[C@H](NC(=O)N(C)c2ccc(OC(F)(F)F)c(OC(F)F)c2)[C@@H]2CC[C@H]1N2c1nnn[nH]1 (single isomer, unassigned) [63D*] | human NLRP3 (Homo sapiens) | 4.00 to 4.30
C[C@@H]1C[C@H](NC(=O)N(C)c2ccc(C3CC3)cc2)[C@H]2CC[C@@H]1N2c1nnn[nH]1 (single isomer, unassigned) [46B*] | human NLRP3 (Homo sapiens) | 4.00 to 4.30
C[C@@H]1C[C@@H](NC(=O)N(C)c2ccc(C(F)(F)F)c(F)c2)[C@H]2CC[C@@H]1N2c1nnn[nH]1 (single isomer, unassigned) [49A*] | human NLRP3 (Homo sapiens) | > 6.00
C[C@H]1CCN(c2nnn[nH]2)C[C@@H](NC(=O)N(C)c2ccc(OC(F)(F)F)c(F)c2F)C1 (single isomer, unassigned) [26D*] | human NLRP3 (Homo sapiens) | 4.30 to 5.00
C[C@H]1CCN(c2nnn[nH]2)C[C@@H](NC(=O)N(C)c2ccc(C3CC3)c(F)c2)C1 (single isomer, unassigned) [23D*] | human NLRP3 (Homo sapiens) | 5.00 to 6.00

Required: pIC50, one value per compound below.
1. C[C@@H]1CCN(c2nnn[nH]2)C[C@H](NC(=O)N(C)c2ccc(Cl)c(F)c2)C1 (single isomer, unassigned) [12A*]
2. C[C@@H]1CCN(c2nnn[nH]2)C[C@@H](NC(=O)N(C)c2ccc(C(F)F)cc2F)C1 (single isomer, unassigned) [18B*]

Outgoing:
1: > 6.00; 2: 5.00 to 6.00

Batch request: pIC50 per item, same order as input.
1. C[C@H]1CCN(c2nnn[nH]2)C[C@H](NC(=O)N(C)c2ccc(OC(F)(F)F)c(F)c2)C1 (single isomer, unassigned) [14C*]
2. C[C@@H]1C[C@H](NC(=O)N(C)c2ccc(C3CC3)c(F)c2)[C@H]2CC[C@@H]1N2c1nnn[nH]1 (single isomer, unassigned) [54B*]
3. C[C@H]1CCN(c2nnn[nH]2)C[C@@H](NC(=O)N(C)c2ccc(Cl)cc2Cl)C1 (single isomer, unassigned)
4. CCN(C(=O)N[C@H]1C[C@H](C)CCN(c2nnn[nH]2)C1)c1ccc(OC(F)(F)F)cc1 (single isomer, unassigned) [43B*]

Outgoing:
< 4.00
< 4.00
4.30 to 5.00
> 6.00

For each listed entry, give its pIC50.
1. C[C@@H]1CCN(c2nnn[nH]2)C[C@H](NC(=O)N(C)c2ccc(OC(F)F)cc2F)C1 (single isomer, unassigned) [17A*]
2. C[C@@H]1C[C@H](NC(=O)N(C)c2ccc(C(F)F)c(F)c2)[C@H]2CC[C@@H]1N2c1nnn[nH]1 (single isomer, unassigned) [53B*]
3. C[C@@H]1CCN(c2nnn[nH]2)C[C@@H](NC(=O)N(C)c2ccc(OC(F)(F)F)cc2)C1 (single isomer, unassigned) [10B*]

Outgoing:
> 6.00
< 4.00
5.00 to 6.00

###

- assayed_system: UniProt Q96P20
- test_summary: Human PBMC NLRP3 Assay (LPS priming, ATP stimulation, cytokine measurement)
- Assay type: cell-based
- Set-up: host or cells: human PBMCs (A2); human whole blood from healthy volunteers (A3)
- details: Table C; human PBMC, LPS + ATP
Lab note: compare IC50 with 9 nM, writing class 1 if less and class 0 if equal or more.

These solved cases illustrate the format of a correct answer.
compound | group
C[C@@H]1CCN(c2nnn[nH]2)C[C@H](NC(=O)N(C)c2ccc(OC(F)F)cc2)C1 (single isomer, unassigned) [11A*] | class 1
C[C@@H]1C[C@@H](NC(=O)N(C)c2ccc(OC(F)F)cc2)[C@H]2CC[C@@H]1N2c1nnn[nH]1 (single isomer, unassigned) [42A*] | class 1
CN(C(=O)Nc1cccc(-c2nnn[nH]2)c1)c1ccc(Cl)cc1 [Comparative Example B2, reference compound] | class 0

Incoming: Given C[C@@H]1CCN(c2nnn[nH]2)C[C@H](NC(=O)N(C)c2ccc(C(F)(F)F)cc2F)C1 (single isomer, unassigned) [13A*] , is recorded IC50 strictly lower than 9 nM?
Outgoing: class 1

###

- assayed_system: human NLRP3 (Homo sapiens)
- test_summary: Human PBMC NLRP3 Assay (LPS priming, ATP stimulation, cytokine measurement)
- Format: cell-based
- Set-up: host or cells: human PBMCs (A2); human whole blood from healthy volunteers (A3)
- details: Table B, activity class; human PBMC, LPS + ATP
pIC50: −log10 of the molar value.
Provide the recorded pIC50 for the entries that follow.

Would you please look over these solved cases?
compound | pIC50
C[C@@H]1CCN(c2nnn[nH]2)C[C@H](NC(=O)N(C)c2ccc(OC(F)(F)F)c(F)c2F)C1 (single isomer, unassigned) [26A*] | 7.00 to 8.00
C[C@@H]1CCN(c2nnn[nH]2)C[C@H](NC(=O)N(C)c2ccc(OC(F)F)cc2F)C1 (single isomer, unassigned) [17A*] | > 8.00

For every listed record, write down its pIC50.
1. C[C@@H]1CCN(c2nnn[nH]2)C[C@H](NC(=O)N(C)c2c(F)cc(OC(F)F)cc2F)C1 (single isomer, unassigned) [19A*]
2. C[C@@H]1CCN(c2nnn[nH]2)C[C@H](NC(=O)N(C)c2ccc(OC(F)(F)F)cc2)C1 (single isomer, unassigned) [10A*]

Outgoing:
1: > 8.00; 2: > 8.00

Hi, could you look up pIC50 for each item in my list?
1. C[C@@H]1CCN(c2nnn[nH]2)C[C@H](NC(=O)N(C)c2ccc(OC(F)F)c(F)c2F)C1 (single isomer, unassigned) [40A*]
2. C[C@@H]1C[C@@H](NC(=O)N(C)c2c(F)cc(C3CC3)cc2F)[C@H]2CC[C@@H]1N2c1nnn[nH]1 (single isomer, unassigned) [60A*]

Outgoing:
1: 7.00 to 8.00; 2: > 8.00
